# experiment: in vitro
# assay.setup: bovine
Where a SMILES comes first, the peptide text is derived from it. [ ]: non-standard residue; d: D form. The star is where a group is joined. Cbz = O=C(OCc1ccccc1)*
half-life at 1 μM values for the molecules below.

O=C(O)CNC(=O)[C@H](Cc1ccccc1)NC(=O)[C@@H](Cc1ccccc1)NC(=O)OCc1ccccc1 [FIP, Z-D-Phe-Phe-Gly, reference compound] (Cbz-[dF]-Phe-Gly-OH) ... > 24 h

Then this molecule:
## Input # half-life at 1 μM lookup, item N=C(N)NCCC[C@@H](NC(=O)[C@H](Cc1ccccc1)NC(=O)[C@@H](Cc1ccccc1)NC(=O)OCc1ccccc1)C(N)=O [FIP-G3r-NH2] (Cbz-[dF]-Phe-[dR]-NH2)
## Output > 24 h

* * *

# experiment: physchem
# Type: physicochemical
Where a SMILES comes first, the peptide text is derived from it. [ ]: non-standard residue; d: D form. The star is where a group is joined. Cbz = O=C(OCc1ccccc1)*
measured.endpoint: solubility (µM)
Write it as a number; the unit µM goes unstated.

N=C(N)NCCC[C@@H](NC(=O)[C@H](Cc1ccccc1)NC(=O)[C@@H](Cc1ccccc1)NC(=O)OCc1ccccc1)C(N)=O [FIP-G3r-NH2] (Cbz-[dF]-Phe-[dR]-NH2) ... 83

Let us move to another entry and its solubility.
## Input Any idea what its solubility is? The molecule is O=C(O)CNC(=O)[C@H](Cc1ccccc1)NC(=O)[C@@H](Cc1ccccc1)NC(=O)OCc1ccccc1 [FIP, Z-D-Phe-Phe-Gly, reference compound] (Cbz-[dF]-Phe-Gly-OH)
## Output 98

* * *

# study.system: MeV-F (prefusion-stabilized ectodomain trimer)
# experiment: Surface plasmon resonance (SPR) binding to MeV-F
# assay.setup: peptides (EG-K derivatives) immobilized on sensor chip, MeV-F as analyte, 25 °C
Where a SMILES comes first, the peptide text is derived from it. [ ]: non-standard residue; d: D form. The star is where a group is joined. Cbz = O=C(OCc1ccccc1)*; AEEA = NCCOCCOCC(=O)O
measured.endpoint: Kd
In your response, the unit should come after the numeric value.

Reference set (3 entries):
N=C(N)NCCC[C@@H](NC(=O)[C@H](Cc1ccccc1)NC(=O)[C@@H](Cc1ccccc1)NC(=O)OCc1ccccc1)C(=O)NCCOCCOCC(=O)N[C@@H](CCCCN)C(N)=O [FIP-G3r-NH-EG-K] (Cbz-[dF]F[dR][AEEA]K-NH2) ... 6.6 nM
NCCCC[C@H](NC(=O)COCCOCCNC(=O)CNC(=O)[C@H](Cc1ccccc1)NC(=O)[C@@H](Cc1ccccc1)NC(=O)OCc1ccccc1)C(N)=O [FIP-NH-EG-K] (Cbz-[dF]FG[AEEA]K-NH2) ... 81 nM
N=C(N)NCCC[C@@H](NC(=O)[C@H](Cc1ccccc1)NC(=O)[C@@H](Cc1ccccc1)NC(=O)OCc1ccccc1)C(N)=O [FIP-G3r-NH2] (Cbz-[dF]-Phe-[dR]-NH2) ... 6.6 nM

## Input Find the recorded Kd belonging to NC(=O)CNC(=O)[C@H](Cc1ccccc1)NC(=O)[C@@H](Cc1ccccc1)NC(=O)OCc1ccccc1 [FIP-NH2] (Cbz-[dF]-Phe-Gly-NH2) and report it.
## Output 81 nM
